- Test system: 292921-168-R-J2-PDC spheroids with HUVEC/MSC, viability
- Experiment notes: Anticancer human tumor 292921-168-R-J2-PDC patient-derived pancreatic carcinoma cell line growth inhibition [TAK]
- Measurement conditions: second compound 30 µM; first compound 0.0316 µM; stronger effect = lower value
Measured property: viability, T/C (%)
I only need the number, in %, no unit after it.

Worked examples, 2 compounds total:
Compound | Target or system | viability, T/C / %
CC(C)CC(NC(=O)CNC(=O)c1cc(Cl)ccc1Cl)B1OC(=O)CC(CC(=O)O)(C(=O)O)O1 (stereo not drawn) + CC(C)NCC(C(=O)N1CCN(c2ncnc3c2C(C)CC3O)CC1)c1ccc(Cl)cc1 | 292921-168-R-J2-PDC spheroids with HUVEC/MSC, viability | 31.8
COc1c(OCCCN2CCOCC2)ccc2c3n(c(=NC(=O)c4cnc(N)nc4)nc12)CCN3 + CC(C)NCC(C(=O)N1CCN(c2ncnc3c2C(C)CC3O)CC1)c1ccc(Cl)cc1 | 292921-168-R-J2-PDC spheroids with HUVEC/MSC, viability | 10.3

Query block: Data request, read-out viability, T/C, for CC(C)(C)c1nc(-c2cccc(NS(=O)(=O)c3c(F)cccc3F)c2F)c(-c2ccnc(N)n2)s1 + CC(C)NCC(C(=O)N1CCN(c2ncnc3c2C(C)CC3O)CC1)c1ccc(Cl)cc1
Result block: 46.5

====

- Test system: 292921-168-R-J2-PDC spheroids with HUVEC/MSC, viability
- Experiment notes: Anticancer human tumor 292921-168-R-J2-PDC cell line growth inhibition [TAK]; active means viability on the fitted dose curve at most 10% of control; inactive means the rest;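 further: spheroids exposed to drugs for seven days before readout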
- Measurement conditions: second compound 3 µM; first compound 0.316 µM
Permitted responses: Y for active, N for inactive

Example results:
Compound | Target or system | Assigned label
CCCS(=O)(=O)Nc1ccc(F)c(C(=O)c2c[nH]c3ncc(-c4ccc(Cl)cc4)cc23)c1F + CC(C)NCC(C(=O)N1CCN(c2ncnc3c2C(C)CC3O)CC1)c1ccc(Cl)cc1 | 292921-168-R-J2-PDC spheroids with HUVEC/MSC, viability | N
COc1c(OCCCN2CCOCC2)ccc2c3n(c(=NC(=O)c4cnc(N)nc4)nc12)CCN3 + CC(C)NCC(C(=O)N1CCN(c2ncnc3c2C(C)CC3O)CC1)c1ccc(Cl)cc1 | 292921-168-R-J2-PDC spheroids with HUVEC/MSC, viability | Y
Cc1nc(NC(=O)N2CCCC2C(N)=O)sc1-c1ccnc(C(C)(C)C(F)(F)F)c1 (centres undefined) + CC(C)NCC(C(=O)N1CCN(c2ncnc3c2C(C)CC3O)CC1)c1ccc(Cl)cc1 | 292921-168-R-J2-PDC spheroids with HUVEC/MSC, viability | N

Next, consider the following compound.
Query block: # fetch the recorded call for CC(C)(C)c1nc(-c2cccc(NS(=O)(=O)c3c(F)cccc3F)c2F)c(-c2ccnc(N)n2)s1 + CC(C)NCC(C(=O)N1CCN(c2ncnc3c2C(C)CC3O)CC1)c1ccc(Cl)cc1 here
Result block: N

====

- Test system: 292921-168-R-J2-PDC spheroids with HUVEC/MSC, viability
- Experiment notes: Anticancer human tumor 292921-168-R-J2-PDC cell line growth inhibition [TAK];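 further: spheroids exposed to drugs for seven days before readout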
- Measurement conditions: second compound 0.3 µM; first compound 0.0316 µM; stronger effect = lower value
Lab note: cut-off is 50%. Strictly less in viability, T/C is True. Exactly 50% or more is False.

Compound | Assigned label
CC(C)n1nc(-c2ccc3oc(N)nc3c2)c2c(N)ncnc21 + CC(C)NCC(C(=O)N1CCN(c2ncnc3c2C(C)CC3O)CC1)c1ccc(Cl)cc1 | True
COC1CC2CCC(C)C(O)(O2)C(=O)C(=O)N2CCCCC2C(=O)OC(C(C)CC2CCC(OCCO)C(OC)C2)CC(=O)C(C)C=C(C)C(O)C(OC)C(=O)C(C)CC(C)C=CC=CC=C1C (stereo unspecified) + CC(C)NCC(C(=O)N1CCN(c2ncnc3c2C(C)CC3O)CC1)c1ccc(Cl)cc1 | True
CC(C)CC(NC(=O)CNC(=O)c1cc(Cl)ccc1Cl)B1OC(=O)CC(CC(=O)O)(C(=O)O)O1 (stereo unspecified) + CC(C)NCC(C(=O)N1CCN(c2ncnc3c2C(C)CC3O)CC1)c1ccc(Cl)cc1 | True
Cc1nc(NC(=O)N2CCCC2C(N)=O)sc1-c1ccnc(C(C)(C)C(F)(F)F)c1 (stereo unspecified) + CC(C)NCC(C(=O)N1CCN(c2ncnc3c2C(C)CC3O)CC1)c1ccc(Cl)cc1 | False
COc1c(OCCCN2CCOCC2)ccc2c3n(c(=NC(=O)c4cnc(N)nc4)nc12)CCN3 + CC(C)NCC(C(=O)N1CCN(c2ncnc3c2C(C)CC3O)CC1)c1ccc(Cl)cc1 | True

Now examine the next entry.
Query block: Is viability, T/C of CC(C)(C)c1nc(-c2cccc(NS(=O)(=O)c3c(F)cccc3F)c2F)c(-c2ccnc(N)n2)s1 + CC(C)NCC(C(=O)N1CCN(c2ncnc3c2C(C)CC3O)CC1)c1ccc(Cl)cc1 strictly below 50%?
Result block: False

====

- Test system: 292921-168-R-J2-PDC spheroids with HUVEC/MSC, viability
- Experiment notes: Anticancer human tumor 292921-168-R-J2-PDC cell line growth inhibition [TAK]; active = viability on the fitted dose curve at most 10% of control; inactive = the rest;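 further: spheroids exposed to drugs for seven days before readout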
- Measurement conditions: second compound 0.949 µM; first compound 1 µM
Your response should consist of one outcome taken from active, inactive

Worked examples follow.
Molecule | Target or system | Assigned label
CCCS(=O)(=O)Nc1ccc(F)c(C(=O)c2c[nH]c3ncc(-c4ccc(Cl)cc4)cc23)c1F + CC(C)NCC(C(=O)N1CCN(c2ncnc3c2C(C)CC3O)CC1)c1ccc(Cl)cc1 | 292921-168-R-J2-PDC spheroids with HUVEC/MSC, viability | inactive
COc1c(OCCCN2CCOCC2)ccc2c3n(c(=NC(=O)c4cnc(N)nc4)nc12)CCN3 + CC(C)NCC(C(=O)N1CCN(c2ncnc3c2C(C)CC3O)CC1)c1ccc(Cl)cc1 | 292921-168-R-J2-PDC spheroids with HUVEC/MSC, viability | active
CC(C)(C)c1nc(-c2cccc(NS(=O)(=O)c3c(F)cccc3F)c2F)c(-c2ccnc(N)n2)s1 + CC(C)NCC(C(=O)N1CCN(c2ncnc3c2C(C)CC3O)CC1)c1ccc(Cl)cc1 | 292921-168-R-J2-PDC spheroids with HUVEC/MSC, viability | inactive

Continue with the next molecule.
Query block: Outcome? Cc1nc(NC(=O)N2CCCC2C(N)=O)sc1-c1ccnc(C(C)(C)C(F)(F)F)c1 (centres undefined) + CC(C)NCC(C(=O)N1CCN(c2ncnc3c2C(C)CC3O)CC1)c1ccc(Cl)cc1
Result block: inactive

====

Parameter viability, T/C: see the listing below.
- System: 292921-168-R-J2-PDC spheroids with HUVEC/MSC, viability
- Experiment notes: Anticancer human tumor 292921-168-R-J2-PDC cell line growth inhibition [TAK];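 further: spheroids exposed to drugs for seven days before readout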
- Measurement conditions: second compound 30 µM; first compound 0.0316 µM; stronger effect = lower value
- Description: Combinatorial screen of targeted agents with TAK-243 and ipatasertib in multi-cell type tumor spheroids […] Compounds. […] If the clinical Cmax for an agent had not been determined, the highest concentration tested was 10 microM. NCI60 Cell Culture. […] The optimal seeding densities for each of the cell lines at each time point assessed were determined prior to performing the concentration response studies. […]
Give the number; % is assumed, so skip it.

Molecule | Target or system | Unit label | Observed measurement
Cc1nc(NC(=O)N2CCCC2C(N)=O)sc1-c1ccnc(C(C)(C)C(F)(F)F)c1 (stereo not drawn) + CC(C)NCC(C(=O)N1CCN(c2ncnc3c2C(C)CC3O)CC1)c1ccc(Cl)cc1 | 292921-168-R-J2-PDC spheroids with HUVEC/MSC, viability | % | 41.1
COC1CC2CCC(C)C(O)(O2)C(=O)C(=O)N2CCCCC2C(=O)OC(C(C)CC2CCC(OCCO)C(OC)C2)CC(=O)C(C)C=C(C)C(O)C(OC)C(=O)C(C)CC(C)C=CC=CC=C1C (stereo not drawn) + CC(C)NCC(C(=O)N1CCN(c2ncnc3c2C(C)CC3O)CC1)c1ccc(Cl)cc1 | 292921-168-R-J2-PDC spheroids with HUVEC/MSC, viability | % | 26.2

Let us examine a further case.
Query block: Can you look up the measured viability, T/C of CC(C)n1nc(-c2ccc3oc(N)nc3c2)c2c(N)ncnc21 + CC(C)NCC(C(=O)N1CCN(c2ncnc3c2C(C)CC3O)CC1)c1ccc(Cl)cc1 for me?
Result block: 23.9

====

- System: 292921-168-R-J2-PDC spheroids with HUVEC/MSC, viability
- Experiment notes: Anticancer human tumor 292921-168-R-J2-PDC cell line growth inhibition [TAK];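 further: spheroids exposed to drugs for seven days before readout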
- Measurement conditions: second compound 3 µM; first compound 0.01 µM; stronger effect = lower value
Measured viability, T/C, listed per entry.
Report only the number, with the unit % understood.

Known viability, T/C results, listed for orientation:
Molecule | viability, T/C / %
CC(C)CC(NC(=O)C(Cc1ccccc1)NC(=O)c1cnccn1)B(O)O (stereo not given) + CC(C)NCC(C(=O)N1CCN(c2ncnc3c2C(C)CC3O)CC1)c1ccc(Cl)cc1 | 6.46
CC(C)CC(NC(=O)CNC(=O)c1cc(Cl)ccc1Cl)B1OC(=O)CC(CC(=O)O)(C(=O)O)O1 (stereo not given) + CC(C)NCC(C(=O)N1CCN(c2ncnc3c2C(C)CC3O)CC1)c1ccc(Cl)cc1 | 80.2
COc1c(OCCCN2CCOCC2)ccc2c3n(c(=NC(=O)c4cnc(N)nc4)nc12)CCN3 + CC(C)NCC(C(=O)N1CCN(c2ncnc3c2C(C)CC3O)CC1)c1ccc(Cl)cc1 | 21.4

Query block: Reported viability, T/C, molecule COC1CC2CCC(C)C(O)(O2)C(=O)C(=O)N2CCCCC2C(=O)OC(C(C)CC2CCC(OCCO)C(OC)C2)CC(=O)C(C)C=C(C)C(O)C(OC)C(=O)C(C)CC(C)C=CC=CC=C1C (stereo not given) + CC(C)NCC(C(=O)N1CCN(c2ncnc3c2C(C)CC3O)CC1)c1ccc(Cl)cc1 : ____
Result block: 42.4

Query block: What viability, T/C value was documented for this molecule, CC(C)n1nc(-c2ccc3oc(N)nc3c2)c2c(N)ncnc21 + CC(C)NCC(C(=O)N1CCN(c2ncnc3c2C(C)CC3O)CC1)c1ccc(Cl)cc1 ?
Result block: 43.8
